# measured-on: TcK2 (T. cruzi eIF2α kinase 2, PERK homologue)
# Construct: gene TcYC6_0089220; kinase domain KD5 (S659-I976)
# test-name: LANCE TR-FRET kinase assay with p70S6K peptide; DSF ΔTm […] °C; knockout parasites less sensitive
# Assay type: biochemical, Trypanosoma cruzi
attribute-measured: pIC50
Remember the convention: pIC50 equals -log10 of concentration in molar.

Qu. Which measured pIC50 value corresponds to Cc1nc(Nc2ncc(C(=O)Nc3c(C)cccc3Cl)s2)cc(N2CCN(CCO)CC2)n1 [Dasatinib] ?
Ans. 6.72

----------
# measured-on: TcK2 (T. cruzi eIF2α kinase 2, PERK homologue)
# Construct: gene TcYC6_0089220; kinase domain KD5 (S659-I976)
# test-name: LANCE TR-FRET kinase assay with p70S6K peptide; DSF ΔTm […] °C
# Format: biochemical, Trypanosoma cruzi
attribute-measured: IC50 (nM)
Please respond with the number in nM and leave the unit unwritten.

Qu. Item under review: `Cn1cc(-c2[nH]c3cc(NC(=O)[C@H](N)C4CCCCC4)cc4c3c2C=NNC4=O)cn1` . Reported IC50?
Ans. 670
